# assay: in vitro
# Assay type: in vitro ADME, rhesus macaques
# measurement parameters: rhesus macaque, frontal cortex brain tissue homogenate
measured quantity: fraction unbound at 18 h
Please reply with the number alone, leaving off any unit.

Prompt: Can you look up the measured fraction unbound at 18 h of "COC(=O)N[C@H](C(=O)N[C@@H](Cc1ccccc1)[C@@H](O)CN(Cc1ccc(-c2ccccn2)cc1)NC(=O)[C@@H](NC(=O)OC)C(C)(C)C)C(C)(C)C" for me?
Completion: 0.76

###

# measurement parameters: both, hu-HSC-Rag and BLT (mice), mouse (humanized) and rhesus macaque, in vivo
measured quantity: Kp at 1 day after the last of ten days of dosing

Prompt: Can you look up the measured Kp at 1 day after the last of ten days of dosing of "Cc1nnc(C(=O)NC(C)(C)c2nc(C(=O)NCc3ccc(F)cc3)c(O)c(=O)n2C)o1" for me?
Completion: 0.11 to 0.12
